Tested on: RAMOS
Assay: cells
Conditions: Homo sapiens, read-out: CYTOTOXIC ACTIVITY (M) RAMOS, leukemias & lymphomas, Lymphoma Burkitts B celll, line RAMOS
assay-metric: IC50 (M)

compound	assay-metric	reading
COc1c(C)cc2c(c1O)[C@@H]1C3Cc4c(OC(C)=O)c(C)c5c(c4[C@H](CNC(=O)Cc4ccccc4)N3[C@@H](O)[C@H](C2)N1C)OCO5 (stereo partly shown) [drawing 224]	IC50	7.15e-09
COc1c(C)cc2c(c1O)[C@@H]1C3Cc4c(OC(C)=O)c(C)c5c(c4[C@H](COC(=O)/C=C/c4cccc(C(F)(F)F)c4)N3[C@@H](O)[C@H](C2)N1C)OCO5 (stereo partly shown) [drawing 237]	IC50	8.86e-09
CCC(=O)N[C@@H](C)C(=O)NC[C@H]1c2c(c(OC(C)=O)c(C)c3c2OCO3)CC2[C@H]3c4c(cc(C)c(OC)c4O)C[C@@H]([C@H](O)N21)N3C (stereo partly shown) [drawing 232]	IC50	5.01e-09
COc1c(C)cc2c(c1O)[C@@H]1C3Cc4c(OC(C)=O)c(C)c5c(c4[C@H](CNC(=O)[C@H](C)NC(=O)Cc4ccccc4)N3[C@@H](O)[C@H](C2)N1C)OCO5 (stereo partly shown) [drawing 223]	IC50	8.85e-10
CCCC(=O)OC[C@H]1c2c(c(OC(C)=O)c(C)c3c2OCO3)CC2[C@H]3c4c(cc(C)c(OC)c4O)C[C@@H]([C@H](O)N21)N3C (stereo partly shown) [drawing 240]	IC50	9.09e-09
CCCCCC(=O)NC[C@H]1c2c(c(OC(C)=O)c(C)c3c2OCO3)CC2[C@H]3c4c(cc(C)c(OC)c4O)C[C@@H]([C@H](O)N21)N3C (stereo partly shown) [drawing 230]	IC50	1.1e-09

###

pIC50: −log10 of the molar value.
This section lists pIC50 readings for HT-29.

compound	pIC50
C/C=C(\OC(C)=O)C1=C(C2=COCO2)[C@H](CNC(=O)CCC)N2C(C1)[C@H]1c3c(cc(C)c(OC)c3O)C[C@@H]([C@@H]2C#N)N1C (stereo partly drawn)	10.00
CCCC(=O)NC[C@H]1c2c(c(OC(C)=O)c(C)c3c2OCO3)CC2[C@H]3c4c(cc(C)c(OC)c4O)C[C@@H]([C@H](O)N21)N3C (stereo partly drawn) [drawing 114]	10.00
C=CCOC(=O)Oc1c(C)c2c(c3c1CC1[C@H]4c5c(cc(C)c(OC)c5O)C[C@@H]([C@H](O)N1[C@H]3CNC(=O)CCc1ccccc1)N4C)OCO2 (stereo partly drawn)	10.00

###

System: H9
Settings: human

compound	IC50 (µM)
COc1c(C)cc2c(c1O)[C@@H]1C3Cc4c(OC(C)=O)c(C)c5c(c4[C@H](COC(=O)/C=C/c4ccccc4)N3[C@@H](O)[C@H](C2)N1C)OCO5 (stereo partly shown) [drawing 239]	0.0217

###

This section lists pIC50 readings for P-388.
pIC50: −log10 of the molar value.
assay-metric: pIC50

compound	reading
COc1c(C)cc2c(c1O)[C@@H]1C3Cc4c(OC(C)=O)c(C)c5c(c4[C@H](CNC(=O)[C@H](C)NC(=O)C(F)(F)F)N3[C@@H](C#N)[C@H](C2)N1C)OCO5 (stereo partly drawn)	10.00
COc1c(C)cc2c(c1O)[C@@H]1C3Cc4c(OC(C)=O)c(C)c5c(c4[C@H](CNC(=O)CCc4ccccc4)N3[C@@H](O)[C@H](C2)N1C)OCO5 (stereo partly drawn) [drawing 123]	10.00
COc1c(C)cc2c(c1O)[C@@H]1C3Cc4c(OC(C)=O)c(C)c5c(c4[C@H](CNC(=O)[C@H](C)NC(=O)CCc4ccccc4)N3[C@@H](O)[C@H](C2)N1C)OCO5 (stereo partly drawn) [drawing 135]	10.00

###

Tested on: SK-HEP-1
Experiment: Cytotoxic activity (M) panel, Liver SK-HEP-1
Conditions: Homo sapiens, SK-HEP1, read-out: CYTOTOXIC ACTIVITY (M) SK-HEP-1

compound	IC50
COc1c(C)cc2c(c1O)[C@@H]1C3Cc4c(OC(C)=O)c(C)c5c(c4[C@H](CNC(=O)[C@H](C)NC(=O)CCc4ccccc4)N3[C@@H](O)[C@H](C2)N1C)OCO5 (stereo partly shown) [drawing 215]	1.4e-09 M
COc1c(C)cc2c(c1O)[C@@H]1C3Cc4c(OC(C)=O)c(C)c5c(c4[C@H](COC(=O)CCc4ccccc4)N3[C@@H](O)[C@H](C2)N1C)OCO5 (stereo partly shown) [drawing 235]	1.29e-09 M
COc1c(C)cc2c(c1O)[C@@H]1C3Cc4c(OC(C)=O)c(C)c5c(c4[C@H](CNC(=O)[C@H](C)NC(=O)Cc4ccccc4)N3[C@@H](O)[C@H](C2)N1C)OCO5 (stereo partly shown) [drawing 216]	9.03e-10 M
CCCC(=O)OC[C@H]1c2c(c(OC(C)=O)c(C)c3c2OCO3)CC2[C@H]3c4c(cc(C)c(OC)c4O)C[C@@H]([C@H](O)N21)N3C (stereo partly shown) [drawing 236]	6.12e-08 M
CCCC(=O)NC[C@H]1c2c(c(OC(C)=O)c(C)c3c2OCO3)CC2[C@H]3c4c(cc(C)c(OC)c4O)C[C@@H]([C@H](O)N21)N3C (stereo partly shown) [drawing 225]	5.07e-09 M
COc1c(C)cc2c(c1O)[C@@H]1C3Cc4c(OC(C)=O)c(C)c5c(c4[C@H](CNC(=O)Cc4ccccc4)N3[C@@H](O)[C@H](C2)N1C)OCO5 (stereo partly shown) [drawing 217]	9.5e-09 M
CCC(=O)N[C@@H](C)C(=O)NC[C@H]1c2c(c(OC(C)=O)c(C)c3c2OCO3)CC2[C@H]3c4c(cc(C)c(OC)c4O)C[C@@H]([C@H](O)N21)N3C (stereo partly shown) [drawing 228]	6.21e-09 M
COc1c(C)cc2c(c1O)[C@@H]1C3Cc4c(OC(C)=O)c(C)c5c(c4[C@H](CNC(=O)/C=C/c4cccc(C(F)(F)F)c4)N3[C@@H](O)[C@H](C2)N1C)OCO5 (stereo partly shown) [drawing 211]	1.79e-12 M
COc1c(C)cc2c(c1O)[C@@H]1C3Cc4c(OC(C)=O)c(C)c5c(c4[C@H](COC(=O)/C=C/c4ccccc4)N3[C@@H](O)[C@H](C2)N1C)OCO5 (stereo partly shown) [drawing 234]	1.94e-09 M
CCC(=O)NC[C@H]1c2c(c(OC(C)=O)c(C)c3c2OCO3)CC2[C@H]3c4c(cc(C)c(OC)c4O)C[C@@H]([C@H](O)N21)N3C (stereo partly shown) [drawing 227]	1.17e-09 M

###

System: K562
Experiment: cells
Conditions: Homo sapiens, K562, read-out: CYTOTOXIC ACTIVITY (M) K562

compound	subject-of-test	IC50
CCC(=O)NC[C@H]1c2c(c(OC(C)=O)c(C)c3c2OCO3)CC2[C@H]3c4c(cc(C)c(OC)c4O)C[C@@H]([C@H](O)N21)N3C (some centres unmarked) [drawing 231]	K562	1.87e-08 M
COc1c(C)cc2c(c1O)[C@@H]1C3Cc4c(OC(C)=O)c(C)c5c(c4[C@H](COC(=O)/C=C/c4ccccc4)N3[C@@H](O)[C@H](C2)N1C)OCO5 (some centres unmarked) [drawing 238]	K562	6.13e-08 M
CCCC(=O)OC[C@H]1c2c(c(OC(C)=O)c(C)c3c2OCO3)CC2[C@H]3c4c(cc(C)c(OC)c4O)C[C@@H]([C@H](O)N21)N3C (some centres unmarked) [drawing 240]	K562	2.11e-08 M
COc1c(C)cc2c(c1O)[C@@H]1C3Cc4c(OC(C)=O)c(C)c5c(c4[C@H](COC(=O)/C=C/c4cccc(C(F)(F)F)c4)N3[C@@H](O)[C@H](C2)N1C)OCO5 (some centres unmarked) [drawing 237]	K562	1.56e-07 M
COc1c(C)cc2c(c1O)[C@@H]1C3Cc4c(OC(C)=O)c(C)c5c(c4[C@H](CNC(=O)[C@H](C)NC(=O)CCc4ccccc4)N3[C@@H](O)[C@H](C2)N1C)OCO5 (some centres unmarked) [drawing 222]	K562	1.09e-08 M

###

System: DU-145
Assay: Cytotoxic activity IC50, DU-145
Settings: read-out: CYTOTOXIC ACTIVITIY IC50 (μM) DU-145; DU-145

compound	measurement-units	IC50
COc1c(C)cc2c(c1O)[C@@H]1C3Cc4c(OC(C)=O)c(C)c5c(c4[C@H](CNC(=O)/C=C/c4cccc(C(F)(F)F)c4)N3[C@@H](O)[C@H](C2)N1C)OCO5 (stereo partly shown) [drawing 109]	µM	0.0001

###

This section lists pIC50 readings for MEL-28.
pIC50: −log10 of the molar value.
assay-metric: pIC50

compound	subject-of-test	reading
CCC(=O)NC[C@H]1c2c(c(OC(C)=O)c(C)c3c2OCO3)CC2[C@H]3c4c(cc(C)c(OC)c4O)C[C@@H]([C@H](O)N21)N3C (some centres unmarked) [drawing 125]	MEL-28	10.00
COc1c(C)cc2c(c1O)[C@@H]1C3Cc4c(OC(C)=O)c(C)c5c(c4[C@H](COC(=O)/C=C/c4cccc(C(F)(F)F)c4)N3[C@@H](O)[C@H](C2)N1C)OCO5 (some centres unmarked) [drawing 157]	MEL-28	10.00
COc1c(C)cc2c(c1O)[C@@H]1C3Cc4c(OC(C)=O)c(C)c5c(c4[C@H](CNC(=O)[C@H](C)NC(=O)C(F)(F)F)N3[C@@H](C#N)[C@H](C2)N1C)OCO5 (some centres unmarked)	MEL-28	10.00
C=CCOC(=O)Oc1c(C)c2c(c3c1CC1[C@H]4c5c(cc(C)c(OC)c5O)C[C@@H]([C@H](C#N)N1[C@H]3CNC(=O)CCc1ccccc1)N4C)OCO2 (some centres unmarked)	MEL-28	10.00
C/C=C(\OC(C)=O)C1=C(C2=COCO2)[C@H](CNC(=O)/C=C/c2ccccc2)N2C(C1)[C@H]1c3c(cc(C)c(OC)c3O)C[C@@H]([C@@H]2C#N)N1C (some centres unmarked)	MEL-28	10.00
CCC(=O)N[C@@H](C)C(=O)NC[C@H]1c2c(c(OC(C)=O)c(C)c3c2OCO3)CC2[C@H]3c4c(cc(C)c(OC)c4O)C[C@@H]([C@H](O)N21)N3C (some centres unmarked) [drawing 138]	MEL-28	10.00
C/C=C/C(=O)NC[C@H]1c2c(c(OC(C)=O)c(C)c3c2OCO3)CC2[C@H]3c4c(cc(C)c(OC)c4O)C[C@@H]([C@H](C#N)N21)N3C (some centres unmarked)	MEL-28	10.00
C/C=C/C(=O)NC[C@H]1c2c(c(OC(C)=O)c(C)c3c2OCO3)CC2[C@H]3c4c(cc(C)c(OC)c4O)C[C@@H]([C@H](O)N21)N3C (some centres unmarked)	MEL-28	10.00
COc1c(C)cc2c(c1O)[C@@H]1C3Cc4c(OC(C)=O)c(C)c5c(c4[C@H](CNC(=O)[C@@H](C)NC(=O)CC(C)C)N3[C@@H](C#N)[C@H](C2)N1C)OCO5 (some centres unmarked)	MEL-28	10.00
COc1c(C)cc2c(c1O)[C@@H]1C3Cc4c(OC(C)=O)c(C)c5c(c4[C@H](CNC(=O)[C@H](C)NC(=O)CCc4ccccc4)N3[C@@H](O)[C@H](C2)N1C)OCO5 (some centres unmarked) [drawing 135]	MEL-28	10.00
C=CCOC(=O)Oc1c(C)c2c(c3c1CC1[C@H]4c5c(cc(C)c(OC)c5O)C[C@@H]([C@H](C#N)N1[C@H]3CNC(=O)/C=C/c1ccccc1)N4C)OCO2 (some centres unmarked)	MEL-28	10.00
C=CCOC(=O)Oc1c(C)c2c(c3c1CC1[C@H]4c5c(cc(C)c(OC)c5O)C[C@@H]([C@H](O)N1[C@H]3CNC(=O)CCc1ccccc1)N4C)OCO2 (some centres unmarked)	MEL-28	10.00
CCC(=O)NC[C@H]1c2c(c(OC(C)=O)c(C)c3c2OCO3)CC2[C@H]3c4c(cc(C)c(OC)c4O)C[C@@H]([C@H](C#N)N21)N3C (some centres unmarked)	MEL-28	10.00
COc1c(C)cc2c(c1O)[C@@H]1C3Cc4c(OC(C)=O)c(C)c5c(c4[C@H](CNC(=O)CCc4ccccc4)N3[C@@H](C#N)[C@H](C2)N1C)OCO5 (some centres unmarked)	MEL-28	10.00
COc1c(C)cc2c(c1O)[C@@H]1C3Cc4c(OC(C)=O)c(C)c5c(c4[C@H](COC(=O)CCc4ccccc4)N3[C@@H](O)[C@H](C2)N1C)OCO5 (some centres unmarked) [drawing 158]	MEL-28	10.00
COc1c(C)cc2c(c1O)[C@@H]1C3Cc4c(OC(C)=O)c(C)c5c(c4[C@H](CNC(=O)CCc4ccccc4)N3[C@@H](O)[C@H](C2)N1C)OCO5 (some centres unmarked) [drawing 123]	MEL-28	10.00
CCCC(=O)OC[C@H]1c2c(c(OC(C)=O)c(C)c3c2OCO3)CC2[C@H]3c4c(cc(C)c(OC)c4O)C[C@@H]([C@H](O)N21)N3C (some centres unmarked) [drawing 156]	MEL-28	10.00
C=CCOC(=O)Oc1c(C)c2c(c3c1CC1[C@H]4c5c(cc(C)c(OC)c5O)C[C@@H]([C@H](O)N1[C@H]3CNC(=O)/C=C/c1ccccc1)N4C)OCO2 (some centres unmarked)	MEL-28	10.00
COc1c(C)cc2c(c1O)[C@@H]1C3Cc4c(OC(C)=O)c(C)c5c(c4[C@H](CNC(=O)Cc4ccccc4)N3[C@@H](C#N)[C@H](C2)N1C)OCO5 (some centres unmarked)	MEL-28	10.00
COc1c(C)cc2c(c1O)[C@@H]1C3Cc4c(OC(C)=O)c(C)c5c(c4[C@H](CNC(=O)/C=C/c4cccc(C(F)(F)F)c4)N3[C@@H](C#N)[C@H](C2)N1C)OCO5 (some centres unmarked)	MEL-28	10.00
COc1c(C)cc2c(c1O)[C@@H]1C3Cc4c(OC(C)=O)c(C)c5c(c4[C@H](CNC(=O)/C=C/c4ccccc4)N3[C@@H](O)[C@H](C2)N1C)OCO5 (some centres unmarked) [drawing 113]	MEL-28	10.00
COc1c(C)cc2c(c1O)[C@@H]1C3Cc4c(OC(C)=O)c(C)c5c(c4[C@H](CNC(=O)[C@H](C)NC(=O)C(F)(F)F)N3[C@@H](O)[C@H](C2)N1C)OCO5 (some centres unmarked) [drawing 110]	MEL-28	10.00
C/C=C(\OC(C)=O)C1=C(C2=COCO2)[C@H](CNC(=O)CCC)N2C(C1)[C@H]1c3c(cc(C)c(OC)c3O)C[C@@H]([C@@H]2C#N)N1C (some centres unmarked)	MEL-28	10.00
